# Test system: NCI-H650
# test.details: relative viability (nuclei count vs DMSO), 5 days (fraction); higher = more cells survive
# test.settings: first compound 0.253 µM
observable: relative viability

Example entries and their recorded answers appear below.
# compound, relative viability
data = [
    ("Nc1cccc2c1CN(C1CCC(=O)NC1=O)C2=O (stereo not given) [Lenalidomide] + CS(=O)(=O)N1CCN(Cc2cc3nc(-c4cccc5[nH]ncc45)nc(N4CCOCC4)c3s2)CC1 [Pictilisib] (partner 1 µM)", 0.822),
    ("Nc1cccc2c1CN(C1CCC(=O)NC1=O)C2=O (stereo not given) [Lenalidomide] + C[C@@H](Oc1cc(-c2cnn(C3CCNCC3)c2)cnc1N)c1c(Cl)ccc(F)c1Cl [Crizotinib] (partner 1 µM)", 0.755),
    ("Nc1cccc2c1CN(C1CCC(=O)NC1=O)C2=O (stereo not given) [Lenalidomide] + O=C(CCCCCCC(=O)Nc1ccccc1)NO [Vorinostat] (partner 1 µM)", 0.492),
]

Looking up Nc1cccc2c1CN(C1CCC(=O)NC1=O)C2=O (stereo not given) [Lenalidomide] + Cc1cc(Nc2cc(N3CCN(C)CC3)nc(Sc3ccc(NC(=O)C4CC4)cc3)n2)n[nH]1 [Tozasertib] (partner 0.1 µM) , I found its relative viability recorded as 0.795

Looking up Nc1cccc2c1CN(C1CCC(=O)NC1=O)C2=O (stereo not given) [Lenalidomide] + CC(=O)c1c(C)c2cnc(Nc3ccc(N4CCNCC4)cn3)nc2n(C2CCCC2)c1=O [Palbociclib] (partner 0.5 µM) , I found its relative viability recorded as 0.405
